Assay: APR_HepG2_StressKinase_72hr: Apredica 72-hour HepG2 Assay for Stress Kinase (AID 2282921)
Settings: HepG2 stress kinase (phospho-c-Jun) imaging, actives raise or lower the signal
The source made the active and inactive calls. Rule for the calls: active = hit-call score of the fitted dose curve at least 0.9, where 1 is the maximum; inactive = score below 0.9.

{"columns": ["Structure notation", "outcome"],
 "data": [
  ["O=C(O)C(F)(F)C(F)(F)C(F)(F)C(F)(F)C(F)(F)F", "inactive"],
  ["Cc1cc(-c2ccc(N)c(C)c2)ccc1N", "inactive"],
  ["O=NN(c1ccccc1)c1ccccc1", "inactive"],
  ["CCSC(=O)N(CC)C1CCCCC1", "inactive"],
  ["O=S(=O)(O)C(F)(F)C(F)(F)C(F)(F)C(F)(F)F", "inactive"],
  ["CCCCCCCCCc1ccc(O)cc1", "inactive"],
  ["CO/C=C(/C(=O)OC)c1ccccc1COc1cccc(C(F)(F)F)n1", "inactive"]
]}

###

Assay: APR_HepG2_MitoMembPot_72hr: Apredica 72-hour HepG2 Assay for Mitochondrial Membrane Potential (AID 2282917)
Settings: imaging, actives raise or lower the signal
The source made the active and inactive calls. How the source made its calls: active means hit-call score of the fitted dose curve at least 0.9, where 1 is the maximum; inactive means score below 0.9.
Possible outcomes: active, inactive

{"columns": ["Structure notation", "Assigned class"],
 "data": [
  ["O=C(NC(=O)c1c(F)cccc1F)Nc1cc(Cl)c(OC(F)(F)C(F)F)c(Cl)c1", "inactive"],
  ["O=C(O)C(F)(F)C(F)(F)C(F)(F)C(F)(F)C(F)(F)F", "inactive"],
  ["CC(C)(O)C(=O)Nc1ccc([N+](=O)[O-])c(C(F)(F)F)c1", "active"],
  ["CCCCCCOC(=O)c1ccccc1C(=O)OCCCCCC", "inactive"],
  ["O=S(=O)(O)C(F)(F)C(F)(F)C(F)(F)C(F)(F)F", "inactive"],
  ["CCCCCCCCCc1ccc(O)cc1", "inactive"]
]}

###

Read-out: Monocyte Chemoattractant Protein-1 (MCP1), CCL2 (gene 6347)
Assay: BSK_4H_MCP1: BioMAP Diversity Plus: 4H Assay for Monocyte Chemoattractant Protein-1 (MCP1) Biomarker Activity (AID 2283018)
Conditions: primary human endothelial cells (HUVEC); actives raise or lower the signal
Experimental: BSK_4H is a cell-based, multiplexed-readout assay that uses umbilical vein endothelium, a human vascular primary cell, with measurements taken at 24 hours after chemical dosing in a 96-well plate.BSK_4H_MCP1 is an assay component measured in the BSK_4H assay. It measures MCP-1 antibody related to regulation of gene expression using ELISA technology.Data from the assay component BSK_4H_MCP1 was analyzed into 1 assay endpoint. […]
The source made the active and inactive calls. How the source made its calls: active means hit-call score of the fitted dose curve at least 0.9, where 1 is the maximum; inactive means score below 0.9.
Experimental endpoint: outcome

{"columns": ["Structure notation", "Reported"],
 "data": [
  ["C[C@]12CCC(=O)C=C1CC[C@@H]1[C@@H]2CC[C@@]2(C)[C@H]1CC[C@]2(C)O", "inactive"],
  ["O=NN(c1ccccc1)c1ccccc1", "inactive"],
  ["Cc1ccccc1[N+](=O)[O-]", "inactive"]
]}

###

Test system: Thyroperoxidase (TPO), gene 54314
Test: CCTE_Simmons_AUR_rTPO: CCTE's Amplex UltraRed Assay for Thyroperoxidase (TPO) Inhibition, Simmons Lab (AID 2283662);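 note: potency for loss of signal meaning inhibition of peroxidase activity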
Procedure: CCTE_Simmons_AUR_rTPO is a biochemical, single-readout assay that uses microsomes from rat thyroid gland in a tissue-based cell-free assay. Measurements were taken 0.5 hour after chemical dosing in a 384-well plate.CCTE_Simmons_AUR_rTPO is the assay component measured from the CCTE_Simmons_AUR_rTPO assay. […]
Activity calls are given as the source filed them. How the source made its calls: active means hit-call score of the fitted dose curve at least 0.9, where 1 is the maximum; inconclusive means response in the unintended direction; inactive means score below 0.9.
Reported AC50 is given for each of the following compounds.
Experimental endpoint: AC50

{"columns": ["Structure notation", "Test system", "Experimental endpoint", "Reported"],
 "data": [
  ["Oc1ccc(C(c2ccc(O)cc2)(C(F)(F)F)C(F)(F)F)cc1", "Thyroperoxidase (TPO), gene 54314", "AC50", "21.7 µM (active)"],
  ["Oc1c(Cl)c(Cl)c(Cl)c(Cl)c1Cl", "Thyroperoxidase (TPO), gene 54314", "AC50", "8.93 µM (active)"],
  ["CCCCCCCCCC[N+](C)(C)CCCCCCCCCC", "Thyroperoxidase (TPO), gene 54314", "AC50", "43.8 µM (active)"],
  ["O=C(O)C(F)(F)C(F)(F)C(F)(F)C(F)(F)C(F)(F)C(F)(F)C(F)(F)C(F)(F)C(F)(F)F", "Thyroperoxidase (TPO), gene 54314", "AC50", "22.7 µM (active)"],
  ["Cc1ccccc1CO[C@@H]1C[C@@]2(C(C)C)CC[C@]1(C)O2", "Thyroperoxidase (TPO), gene 54314", "AC50", "28 µM (active)"],
  ["CCC(C)(c1ccc(O)cc1)c1ccc(O)cc1", "Thyroperoxidase (TPO), gene 54314", "AC50", "1.86 µM (active)"],
  ["O=C(NC(=O)c1c(F)cccc1F)Nc1cc(Cl)c(OC(F)(F)C(F)F)c(Cl)c1", "Thyroperoxidase (TPO), gene 54314", "AC50", "20.7 µM (active)"],
  ["COS(=O)(=O)OC", "Thyroperoxidase (TPO), gene 54314", "AC50", "27 µM (active)"]
]}
